molecular target: human PDE2A1 (Homo sapiens, UniProt O00408); construct: GST; purchased BPS Bioscience (San Diego, Calif.) 60020; host or cells: insect cells; test: IMAP FP PDE assay, human PDE2A1; assay type: biochemical; details: Lab B; read-out: Human PDE2 Ki (nM) Lab B
Sequence (O00408 1-920 isoform O00408-2): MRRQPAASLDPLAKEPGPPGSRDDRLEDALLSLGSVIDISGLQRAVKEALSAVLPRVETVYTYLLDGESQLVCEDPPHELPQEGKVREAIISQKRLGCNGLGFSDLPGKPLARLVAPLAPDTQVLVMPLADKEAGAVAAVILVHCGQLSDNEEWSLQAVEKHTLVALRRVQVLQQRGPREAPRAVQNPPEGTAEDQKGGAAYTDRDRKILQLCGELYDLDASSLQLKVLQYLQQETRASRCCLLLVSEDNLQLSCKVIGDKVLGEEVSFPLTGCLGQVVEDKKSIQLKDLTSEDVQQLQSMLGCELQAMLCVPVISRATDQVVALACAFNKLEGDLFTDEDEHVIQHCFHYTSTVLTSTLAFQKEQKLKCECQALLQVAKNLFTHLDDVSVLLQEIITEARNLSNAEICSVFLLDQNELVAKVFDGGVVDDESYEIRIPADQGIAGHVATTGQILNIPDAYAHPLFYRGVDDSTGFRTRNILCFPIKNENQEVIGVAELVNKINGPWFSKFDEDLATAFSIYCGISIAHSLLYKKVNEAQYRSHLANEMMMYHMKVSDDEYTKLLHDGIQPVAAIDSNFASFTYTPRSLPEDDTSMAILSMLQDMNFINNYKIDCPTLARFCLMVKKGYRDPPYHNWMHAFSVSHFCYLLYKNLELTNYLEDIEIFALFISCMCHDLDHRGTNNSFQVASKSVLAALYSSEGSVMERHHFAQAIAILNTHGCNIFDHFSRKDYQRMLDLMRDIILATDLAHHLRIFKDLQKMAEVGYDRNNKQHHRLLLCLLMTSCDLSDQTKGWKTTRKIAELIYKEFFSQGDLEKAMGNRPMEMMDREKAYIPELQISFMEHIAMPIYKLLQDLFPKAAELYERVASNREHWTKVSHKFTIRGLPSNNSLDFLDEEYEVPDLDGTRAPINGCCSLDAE
Recorded Ki by entry
Report only the number, with the unit nM understood.

Recorded Ki, per entry:
1) CC(C)Cc1nc2c(c(CO)nn2C(C)c2ccc(C(F)(F)F)cc2)c(=O)[nH]1 (single isomer, unassigned) [Example 306] = 568
2) Cc1nc2c(c(CO)nn2C(c2ccc(C(C)(C)C)cc2)C2CC2)c(=O)[nH]1 (single isomer, unassigned) [Example 88] = 45
3) Cc1nc2c(c(CO)nn2Cc2ccc(C(F)(F)F)cc2)c(=O)[nH]1 [Example 8] = 105
4) Cc1nc2c(c(CC(O)C(F)(F)F)nn2C(C)c2ccc(C(F)(F)F)cc2)c(=O)[nH]1 (single isomer, unassigned) [Example 240] = 434
5) Cc1nc2c(c(C(F)F)nn2C(C)c2ccc(C(F)(F)F)c(F)c2)c(=O)[nH]1 (single isomer, unassigned) [Example 167] = 256

## Input Specify measured Ki for Cc1nc2c(c(CO)nn2C(C)c2ccc(C(F)F)cc2)c(=O)[nH]1 (single isomer, unassigned) [Example 110] .
## Output 1070

## Input For the compound Cc1nc2c(c(CO)nn2C(C)c2ccc(C(F)(F)F)c(C)c2)c(=O)[nH]1 (single isomer, unassigned) [Example 106] , give its measured Ki value.
## Output 633

## Input Query Ki for Cc1nc2c(c(CO)nn2C(c2ccc(C(F)(F)F)cc2)C(F)(F)F)c(=O)[nH]1 (centres unmarked) [Example 6]
## Output 3.1

## Input Please indicate Ki recorded for Cc1nc2c(c(CC3COC3)nn2C(C)c2ccc(C(F)(F)F)cc2)c(=O)[nH]1 (centres unmarked) [Example 289]
## Output 388

## Input Return the recorded Ki value; entry: Cc1nc2c(c(CO)nn2C(c2ccc(C(F)(F)F)cc2)C(C)(C)C)c(=O)[nH]1 (single isomer, unassigned) [Example 83]
## Output 7.6

###

target: Rhesus PDE2A3 (Macaca mulatta); construct: made in house; host or cells: AD293 cells, transient transfection; supernatant of sonicated lysate; assay: PDE2 fluorescence polarization (IMAP FP) inhibition assay, rhesus PDE2A3; type: biochemical, rhesus macaque; settings: Lab B; read-out: Rhesus PDE2 Ki (nM) Lab B
Sequence (B3VTJ2 1-941): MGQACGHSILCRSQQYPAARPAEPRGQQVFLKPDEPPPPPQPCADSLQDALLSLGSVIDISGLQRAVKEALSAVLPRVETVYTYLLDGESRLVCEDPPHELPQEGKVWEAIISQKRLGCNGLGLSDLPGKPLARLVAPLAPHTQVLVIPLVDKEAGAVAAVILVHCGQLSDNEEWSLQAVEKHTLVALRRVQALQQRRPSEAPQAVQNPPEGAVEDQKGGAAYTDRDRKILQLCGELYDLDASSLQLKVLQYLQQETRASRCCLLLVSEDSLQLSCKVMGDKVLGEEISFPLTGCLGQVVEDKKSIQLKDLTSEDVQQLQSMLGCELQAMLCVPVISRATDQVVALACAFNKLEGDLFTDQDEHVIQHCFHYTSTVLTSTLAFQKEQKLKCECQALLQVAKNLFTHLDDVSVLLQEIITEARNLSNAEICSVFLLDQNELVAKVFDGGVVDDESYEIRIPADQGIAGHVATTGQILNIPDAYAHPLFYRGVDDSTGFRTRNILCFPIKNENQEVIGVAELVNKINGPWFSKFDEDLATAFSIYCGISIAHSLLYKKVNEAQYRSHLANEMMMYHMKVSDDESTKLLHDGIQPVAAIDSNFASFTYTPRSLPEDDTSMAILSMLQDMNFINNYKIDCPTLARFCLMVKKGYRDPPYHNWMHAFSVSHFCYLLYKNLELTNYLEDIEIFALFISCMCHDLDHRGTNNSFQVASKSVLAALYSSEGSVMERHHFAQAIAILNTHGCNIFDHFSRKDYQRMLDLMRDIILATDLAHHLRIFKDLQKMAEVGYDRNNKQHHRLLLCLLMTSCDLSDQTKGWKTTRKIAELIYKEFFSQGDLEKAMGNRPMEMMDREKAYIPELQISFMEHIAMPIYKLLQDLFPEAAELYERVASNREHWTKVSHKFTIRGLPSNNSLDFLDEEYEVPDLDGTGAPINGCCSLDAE
outcome_measure: Ki (nM)
Kindly provide the numeric value in nM only, without the unit symbol.

1) Cc1nc2c(c(CO)nn2C(c2ccc(C(F)(F)F)c(F)c2)C(C)C)c(=O)[nH]1 (single isomer, unassigned) [Example 87] = 3.2
2) Cc1nc2c(c(CO)nn2C(c2ccc(OC(F)(F)F)c(F)c2)C(C)C)c(=O)[nH]1 (single isomer, unassigned) [Example 127] = 0.9
3) Cc1nc2c(c(CC(F)(F)F)nn2C(c2ccc(C(F)(F)F)cc2)C2(C)CC2)c(=O)[nH]1 (single isomer, unassigned) [Example 59] = 22

Continue with the compound presented below.
## Input Return value of Ki for input Cc1nc2c(c(CS(C)(=O)=O)nn2C(C)c2ccc(C(F)(F)F)cc2)c(=O)[nH]1 (single isomer, unassigned) [Example 273] , no commentary.
## Output 757

src = patent US10160762B2
